Some compounds, each annotated with its measured Biodistribution: Kidney.
test: Biodistribution of [111In]In-radiocomplexes in healthy mice
Type: in vivo
reported-conditions: 1 h p.i.
measure: Biodistribution: Kidney (% I.D./g)

{"compound": "O=C([O-])CN1CCN(CC(=O)[O-])CCN(CC(=O)NCCOCCOCCOCCOCCOCCOCCOCCOCCOCCOCCOCCNC(=O)CCCC(=O)NCc2ccc(-c3nncnn3)cc2)CCN(CC(=O)[O-])CC1.[111In+3] [[111In]In-DOTA-PEG-Tz]", "measure": "Biodistribution: Kidney", "uom": "% I.D./g", "obs-value": 1.9}
{"compound": "O=C([O-])CN1CCN(CC(=O)[O-])CCN(CC(=O)NCc2ccc(-c3nncnn3)cc2)CCN(CC(=O)[O-])CC1.[111In+3] [[111In]In-DOTA-Tz]", "measure": "Biodistribution: Kidney", "uom": "% I.D./g", "obs-value": 1.6}
{"compound": "O=C([O-])CN1CCN(CC(=O)[O-])CCN(C(CCC(=O)NCc2ccc(-c3nncnn3)cc2)C(=O)[O-])CCN(CC(=O)[O-])CC1.[111In+3] (stereo not shown) [[111In]In-DOTAGA-Tz]", "measure": "Biodistribution: Kidney", "uom": "% I.D./g", "obs-value": 3.6}
{"compound": "O=C([O-])CN1CCN(CC(=O)[O-])CCN(C(CCC(=O)NCCOCCOCCOCCOCCOCCOCCOCCOCCOCCOCCOCCNC(=O)CCCC(=O)NCc2ccc(-c3nncnn3)cc2)C(=O)[O-])CCN(CC(=O)[O-])CC1.[111In+3] (stereo not shown) [[111In]In-DOTAGA-PEG-Tz]", "measure": "Biodistribution: Kidney", "uom": "% I.D./g", "obs-value": 2.2}

###

test: in vivo
reported-conditions: male, NodCB17 SCID, mouse, bone, iv, 0.061 nmol, total radioactivity

{"molecule": "CC(C)C[C@H](NC(=O)C[C@H](O)[C@H](CC(C)C)NC(=O)[C@H](Cc1c[nH]cn1)NC(=O)CNC(=O)[C@@H](NC(=O)[C@H](C)NC(=O)[C@H](Cc1c[nH]c2ccccc12)NC(=O)[C@H](CCC(N)=O)NC(=O)[C@@H](Cc1ccccc1)NC(=O)CCOCCOCCOCCOCCNC(=O)OC1CCCC2=CNN=C(c3ccc(CNC(=O)CN4CCN(CC(=O)O)CCN(CC(=O)O)CCN(CC(=O)O)CC4)cc3)C2CC1)C(C)C)C(N)=O (stereo partly shown) [[90Y]Y-DOTA-Tz-TCO-PEG4-AR, metal not drawn]", "tissue uptake at 0.25 h (%ID/g)": 3.15}

###

test: Biodistribution of [111In]In-radiocomplexes in healthy mice
Type: in vivo
reported-conditions: 15 min p.i.
Experimental: We performed a biodistribution study of the four [^111In]In-radiocomplexes in healthy mice to determine the clearance rate from systemic blood circulation and the tissue/organ distribution over time. […] The urinary tract was identified as the main excretory pathway since the highest % I.D./g values were found in the kidneys for all the radiocomplexes, associated to rapid radioactivity excretion both at 15 min and 1 h p.i. […] page 9: from whole animal body. […]
measure: Biodistribution: Heart (% I.D./g)

{"molecule": "O=C([O-])CN1CCN(CC(=O)[O-])CCN(C(CCC(=O)NCCOCCOCCOCCOCCOCCOCCOCCOCCOCCOCCOCCNC(=O)CCCC(=O)NCc2ccc(-c3nncnn3)cc2)C(=O)[O-])CCN(CC(=O)[O-])CC1.[111In+3] (stereo not shown) [[111In]In-DOTAGA-PEG-Tz]", "measure": "Biodistribution: Heart", "uom": "% I.D./g", "obs-value": 1.2}
{"molecule": "O=C([O-])CN1CCN(CC(=O)[O-])CCN(C(CCC(=O)NCc2ccc(-c3nncnn3)cc2)C(=O)[O-])CCN(CC(=O)[O-])CC1.[111In+3] (stereo not shown) [[111In]In-DOTAGA-Tz]", "measure": "Biodistribution: Heart", "uom": "% I.D./g", "obs-value": 0.9}
{"molecule": "O=C([O-])CN1CCN(CC(=O)[O-])CCN(CC(=O)NCCOCCOCCOCCOCCOCCOCCOCCOCCOCCOCCOCCNC(=O)CCCC(=O)NCc2ccc(-c3nncnn3)cc2)CCN(CC(=O)[O-])CC1.[111In+3] [[111In]In-DOTA-PEG-Tz]", "measure": "Biodistribution: Heart", "uom": "% I.D./g", "obs-value": 1.0}
{"molecule": "O=C([O-])CN1CCN(CC(=O)[O-])CCN(CC(=O)NCc2ccc(-c3nncnn3)cc2)CCN(CC(=O)[O-])CC1.[111In+3] [[111In]In-DOTA-Tz]", "measure": "Biodistribution: Heart", "uom": "% I.D./g", "obs-value": 0.8}

###

test: Biodistribution of [111In]In-radiocomplexes in healthy mice
Type: in vivo
reported-conditions: 15 min p.i.
Some compounds, each annotated with its measured Biodistribution: Spleen.
measure: Biodistribution: Spleen

{"compound": "O=C([O-])CN1CCN(CC(=O)[O-])CCN(CC(=O)NCc2ccc(-c3nncnn3)cc2)CCN(CC(=O)[O-])CC1.[111In+3] [[111In]In-DOTA-Tz]", "obs-value": "0.8 ± 0.2 % I.D./g"}
{"compound": "O=C([O-])CN1CCN(CC(=O)[O-])CCN(CC(=O)NCCOCCOCCOCCOCCOCCOCCOCCOCCOCCOCCOCCNC(=O)CCCC(=O)NCc2ccc(-c3nncnn3)cc2)CCN(CC(=O)[O-])CC1.[111In+3] [[111In]In-DOTA-PEG-Tz]", "obs-value": "0.66 ± 0.28 % I.D./g"}
{"compound": "O=C([O-])CN1CCN(CC(=O)[O-])CCN(C(CCC(=O)NCc2ccc(-c3nncnn3)cc2)C(=O)[O-])CCN(CC(=O)[O-])CC1.[111In+3] (stereo not shown) [[111In]In-DOTAGA-Tz]", "obs-value": "0.6 ± 0.1 % I.D./g"}
{"compound": "O=C([O-])CN1CCN(CC(=O)[O-])CCN(C(CCC(=O)NCCOCCOCCOCCOCCOCCOCCOCCOCCOCCOCCOCCNC(=O)CCCC(=O)NCc2ccc(-c3nncnn3)cc2)C(=O)[O-])CCN(CC(=O)[O-])CC1.[111In+3] (stereo not shown) [[111In]In-DOTAGA-PEG-Tz]", "obs-value": "0.6 ± 0.2 % I.D./g"}

###

test: in vivo
reported-conditions: male, NodCB17 SCID, mouse, blood, iv, total radioactivity

{"molecule": "CC(C)C[C@H](NC(=O)C[C@H](O)[C@H](CC(C)C)NC(=O)[C@H](Cc1c[nH]cn1)NC(=O)CNC(=O)[C@@H](NC(=O)[C@H](C)NC(=O)[C@H](Cc1c[nH]c2ccccc12)NC(=O)[C@H](CCC(N)=O)NC(=O)[C@@H](Cc1ccccc1)NC(=O)CCOCCOCCOCCOCCNC(=O)OC1CCCC2=CNN=C(c3ccc(CNC(=O)CN4CCN(CC(=O)O)CCN(CC(=O)O)CCN(CC(=O)O)CC4)cc3)C2CC1)C(C)C)C(N)=O (stereo partly shown) [[111In]In-DOTA-Tz-TCO-PEG4-AR, metal not drawn]", "tissue uptake at 1 h [%ID/g]": 1.2}

###

test: in vivo
reported-conditions: male, NodCB17 SCID, mouse, blood, iv, 0.061 nmol, total radioactivity

{"compound": "CC(C)C[C@H](NC(=O)C[C@H](O)[C@H](CC(C)C)NC(=O)[C@H](Cc1c[nH]cn1)NC(=O)CNC(=O)[C@@H](NC(=O)[C@H](C)NC(=O)[C@H](Cc1c[nH]c2ccccc12)NC(=O)[C@H](CCC(N)=O)NC(=O)[C@@H](Cc1ccccc1)NC(=O)CCOCCOCCOCCOCCNC(=O)OC1CCCC2=CNN=C(c3ccc(CNC(=O)CN4CCN(CC(=O)O)CCN(CC(=O)O)CCN(CC(=O)O)CC4)cc3)C2CC1)C(C)C)C(N)=O (stereo partly shown) [[90Y]Y-DOTA-Tz-TCO-PEG4-AR, metal not drawn]", "tissue uptake at 0.25 h (%ID/g)": 14.9}

###

Some compounds, each annotated with its measured Biodistribution: Liver.
test: Biodistribution of [111In]In-radiocomplexes in healthy mice
Format: in vivo
reported-conditions: 1 h p.i.
measure: Biodistribution: Liver (% I.D./g)

{"compound": "O=C([O-])CN1CCN(CC(=O)[O-])CCN(C(CCC(=O)NCCOCCOCCOCCOCCOCCOCCOCCOCCOCCOCCOCCNC(=O)CCCC(=O)NCc2ccc(-c3nncnn3)cc2)C(=O)[O-])CCN(CC(=O)[O-])CC1.[111In+3] (stereo not shown) [[111In]In-DOTAGA-PEG-Tz]", "measure": "Biodistribution: Liver", "obs-value": 0.3}
{"compound": "O=C([O-])CN1CCN(CC(=O)[O-])CCN(CC(=O)NCCOCCOCCOCCOCCOCCOCCOCCOCCOCCOCCOCCNC(=O)CCCC(=O)NCc2ccc(-c3nncnn3)cc2)CCN(CC(=O)[O-])CC1.[111In+3] [[111In]In-DOTA-PEG-Tz]", "measure": "Biodistribution: Liver", "obs-value": 0.70}
{"compound": "O=C([O-])CN1CCN(CC(=O)[O-])CCN(CC(=O)NCc2ccc(-c3nncnn3)cc2)CCN(CC(=O)[O-])CC1.[111In+3] [[111In]In-DOTA-Tz]", "measure": "Biodistribution: Liver", "obs-value": 0.29}
{"compound": "O=C([O-])CN1CCN(CC(=O)[O-])CCN(C(CCC(=O)NCc2ccc(-c3nncnn3)cc2)C(=O)[O-])CCN(CC(=O)[O-])CC1.[111In+3] (stereo not shown) [[111In]In-DOTAGA-Tz]", "measure": "Biodistribution: Liver", "obs-value": 1.0}
